# Tested on: RPMI-8226 leukemia
# Measurement description: NCI tumour cell line growth inhibition, 48 h
Assay endpoint: TGI

>>> observed_value("[Cl][Cu][Cl]")
"> 10 µM"
>>> observed_value("COC1=C2CC(C)CC(OC)C(OC(=O)CCCN)C(C)/C=C(\\C)C(OC(N)=O)C(OC)/C=C\\C=C(/C)C(=O)NC(=CC1=O)C2=O (stereo unspecified)")
"32.5 µM"
>>> observed_value("O=C1C(Nc2cccc(O)c2)=C(Sc2ccccc2)C(=O)N1Cc1ccccc1")
"4.07 µM"
>>> observed_value("O=C(N/N=C(\\C1=Nc2ccc(Cl)cc2NC1O)C(O)/C=C/c1ccccc1)c1ccncc1 (stereo unspecified)")
"> 100 µM"
>>> observed_value("CCOC(=O)/C=C\\C(C#N)(C#N)N=Cc1ccsc1")
"4.25 µM"
>>> observed_value("O=C(Nc1ccc2[nH]c(C(=O)N3CC(CCl)c4ccc([N+](=O)[O-])cc43)cc2c1)c1cc2ccccc2o1 (stereo unspecified)")
"> 1100 µM"
>>> observed_value("CCCCCCCCCCCCC(O)C(=O)O (stereo unspecified)")
"> 100 µM"
>>> observed_value("O=c1cc(CNC2CC3CCC2C3)[nH]c(=O)[nH]1 (stereo unspecified)")
"> 100 µM"
>>> observed_value("C=C(C)CCC1CC=[N+]([O-])OC1C(C)(C)C (stereo unspecified)")
"> 100 µM"
>>> observed_value("NC(CCCCNCc1ccccc1O)C(=O)O (stereo unspecified)")
"> 100 µM"
>>> observed_value("NCc1ccc(-c2nc(-c3ccc(Cl)c(O)c3)c(-c3ccncc3)[nH]2)cc1")
"> 25 µM"
>>> observed_value("COc1c(CC=C(C)C)c(O)c(C(CC(C)C)c2c(O)c(CC=C(C)C)c(O)c(C(C)=O)c2O)c(O)c1C(C)=O (stereo unspecified)")
"4.17 µM"
>>> observed_value("C[C@@]1(OC(=O)c2cc([N+](=O)[O-])cc([N+](=O)[O-])c2)C[C@@H]2CCCC[C@@H]21")
"> 100 µM"
>>> observed_value("CNC(=O)CCCNC(=O)CCCC(=O)OC")
"> 100 µM"
>>> observed_value("CCCC(=O)OCOC(=O)N(C)N=Nc1ccc(C(=O)OCC)cc1")
"> 100 µM"
>>> observed_value("C=C1C=CC2(Br)OC3CC(C)(Cl)C(Br)CC13C2(C)C (stereo unspecified)")
"53.1 µM"
>>> observed_value("S=C(NCc1ccc2c(c1)OCO2)N1CCN(c2ncnc3c2oc2ccccc23)CC1")
"> 100 µM"
>>> observed_value("O=C1c2ccccc2C(=O)c2c1cc1c(c2[N+](=O)[O-])OCO1")
"0.916 µM"
>>> observed_value("Cc1cn(C2CC(O)C(Cn3nncc3Cn3ncc(=O)[nH]c3=O)O2)c(=O)[nH]c1=O (stereo unspecified)")
"> 100 µM"
>>> observed_value("CC(C)(C)c1cc(C(=O)O)c2c(c1)C(=O)OC2(c1ccccc1)c1ccccc1C(=O)O (stereo unspecified)")
"> 100 µM"
>>> observed_value("N#Cc1cccc(Nc2ncc(-c3ccccc3)o2)c1")
"> 25 µM"
